- assay-target: UniProt:Q8NET8
- Sequence (Q8NET8 whole entry): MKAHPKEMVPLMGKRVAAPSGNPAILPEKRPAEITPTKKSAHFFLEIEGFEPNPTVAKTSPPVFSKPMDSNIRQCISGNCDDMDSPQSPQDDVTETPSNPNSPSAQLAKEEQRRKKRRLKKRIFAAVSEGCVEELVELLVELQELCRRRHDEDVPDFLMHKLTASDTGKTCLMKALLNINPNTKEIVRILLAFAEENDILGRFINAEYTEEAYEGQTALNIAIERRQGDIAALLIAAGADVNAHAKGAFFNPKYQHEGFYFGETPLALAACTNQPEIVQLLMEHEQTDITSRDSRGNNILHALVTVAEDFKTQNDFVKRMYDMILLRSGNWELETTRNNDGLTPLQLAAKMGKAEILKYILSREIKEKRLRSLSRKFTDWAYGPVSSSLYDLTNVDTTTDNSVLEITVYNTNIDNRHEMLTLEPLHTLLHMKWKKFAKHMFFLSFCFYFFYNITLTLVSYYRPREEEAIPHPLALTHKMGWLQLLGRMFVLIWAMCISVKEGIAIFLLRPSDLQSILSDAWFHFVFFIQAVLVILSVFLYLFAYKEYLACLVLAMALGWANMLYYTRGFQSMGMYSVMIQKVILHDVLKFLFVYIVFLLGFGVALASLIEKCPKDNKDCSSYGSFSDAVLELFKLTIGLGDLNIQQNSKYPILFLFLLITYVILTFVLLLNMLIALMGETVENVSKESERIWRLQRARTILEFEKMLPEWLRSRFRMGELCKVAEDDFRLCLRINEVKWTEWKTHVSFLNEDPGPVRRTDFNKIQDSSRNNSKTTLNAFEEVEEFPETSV
- experiment: Intermolecular BRET assay, Luc-TRPV3/YFP-CaM in HEK293T cells
- experimental-setup: dose-response, FIG. 1, read-out: EC50 of BRET signal increase between YFP-CaM and Luc-TRPV3
measured-attribute: EC50 (µM)

1. CCN(CC)CCOC(=O)C(c1ccccc1)C1CCCCC1 (stereo not shown) [Drofenine] ... 206
